studySystem: Fyn (UniProt P06241)
Sequence (P06241 whole entry, looked up): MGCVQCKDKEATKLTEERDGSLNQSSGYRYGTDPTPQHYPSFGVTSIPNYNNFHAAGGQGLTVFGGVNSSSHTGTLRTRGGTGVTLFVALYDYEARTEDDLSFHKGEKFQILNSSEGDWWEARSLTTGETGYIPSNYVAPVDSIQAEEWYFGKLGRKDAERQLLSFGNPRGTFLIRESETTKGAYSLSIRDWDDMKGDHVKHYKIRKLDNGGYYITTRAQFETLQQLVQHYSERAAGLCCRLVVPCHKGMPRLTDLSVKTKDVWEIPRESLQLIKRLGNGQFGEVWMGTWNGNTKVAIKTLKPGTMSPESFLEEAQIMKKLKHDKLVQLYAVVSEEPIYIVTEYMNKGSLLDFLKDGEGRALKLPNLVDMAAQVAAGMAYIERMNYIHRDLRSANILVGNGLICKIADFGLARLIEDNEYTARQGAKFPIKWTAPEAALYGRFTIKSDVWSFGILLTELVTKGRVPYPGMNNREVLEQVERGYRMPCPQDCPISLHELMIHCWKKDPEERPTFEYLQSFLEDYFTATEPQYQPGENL
experimentDescription: phosphorylation enrichment, bacterial display (enrichment ratio); higher = better substrate or ligand; peptides without Tyr show the background
Returns Y if the recorded phosphorylation enrichment is greater than or equal to 0.6, and N otherwise.

# input Hi team, for LQRVQCDLQKA [DSP_Y1512_Y1512C] , is the recorded phosphorylation enrichment at or above 0.6?
# output Y

# input Reported phosphorylation enrichment at or above 0.6? AAVDNYCRHNY [HLA-DRB1_Y107_T106N]
# output N

# input For this sequence, is measured phosphorylation enrichment 0.6 or higher? NKFTTYLPWLP [C9orf24_Y126_R129W_YF]
# output Y

# input Decide: is the reported value of phosphorylation enrichment for LVMFISAIFGM [SCN1A_Y1684_Y1684S] equal to or greater than 0.6?
# output Y

# input Item LESETYRRLLD [KRT12_Y429_I426S] with phosphorylation enrichment of 0.6 or above?
# output Y

# input Answer whether phosphorylation enrichment of VEFAKYGSLQG [RET_Y809_R813Q_YF] is greater than or equal to 0.6.
# output N

# input For this sequence, is measured phosphorylation enrichment 0.6 or higher? SHNKYYMLVAH [MFSD8_Y134_R139H]
# output N

# input Please check the record AGVIIYTSRFQ [PFAS_Y538_A535V] and state if its phosphorylation enrichment is at or above 0.6.
# output Y

----------
Each record here notes measured SH2 binding enrichment.
studySystem: Grb2 SH2 (UniProt P62993)
Sequence (P62993 whole entry, looked up): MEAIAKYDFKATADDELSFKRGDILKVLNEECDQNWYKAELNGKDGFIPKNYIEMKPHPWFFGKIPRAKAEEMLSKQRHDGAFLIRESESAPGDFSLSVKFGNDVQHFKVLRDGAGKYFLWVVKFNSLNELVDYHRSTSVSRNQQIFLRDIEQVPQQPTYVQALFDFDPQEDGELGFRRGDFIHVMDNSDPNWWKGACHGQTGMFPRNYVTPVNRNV
experimentDescription: SH2 binding enrichment of the phosphorylated peptide, bacterial display (enrichment ratio); higher = better substrate or ligand; peptides without Tyr show the background
A bare number is all that is needed in reply.

# input Kindly indicate its recorded SH2 binding enrichment. Item: TSGVVYKARNK [CDK2_Y19_Y15S]
# output 0.742

----------
studySystem: MERTK (UniProt Q12866)
Sequence (Q12866 whole entry, looked up): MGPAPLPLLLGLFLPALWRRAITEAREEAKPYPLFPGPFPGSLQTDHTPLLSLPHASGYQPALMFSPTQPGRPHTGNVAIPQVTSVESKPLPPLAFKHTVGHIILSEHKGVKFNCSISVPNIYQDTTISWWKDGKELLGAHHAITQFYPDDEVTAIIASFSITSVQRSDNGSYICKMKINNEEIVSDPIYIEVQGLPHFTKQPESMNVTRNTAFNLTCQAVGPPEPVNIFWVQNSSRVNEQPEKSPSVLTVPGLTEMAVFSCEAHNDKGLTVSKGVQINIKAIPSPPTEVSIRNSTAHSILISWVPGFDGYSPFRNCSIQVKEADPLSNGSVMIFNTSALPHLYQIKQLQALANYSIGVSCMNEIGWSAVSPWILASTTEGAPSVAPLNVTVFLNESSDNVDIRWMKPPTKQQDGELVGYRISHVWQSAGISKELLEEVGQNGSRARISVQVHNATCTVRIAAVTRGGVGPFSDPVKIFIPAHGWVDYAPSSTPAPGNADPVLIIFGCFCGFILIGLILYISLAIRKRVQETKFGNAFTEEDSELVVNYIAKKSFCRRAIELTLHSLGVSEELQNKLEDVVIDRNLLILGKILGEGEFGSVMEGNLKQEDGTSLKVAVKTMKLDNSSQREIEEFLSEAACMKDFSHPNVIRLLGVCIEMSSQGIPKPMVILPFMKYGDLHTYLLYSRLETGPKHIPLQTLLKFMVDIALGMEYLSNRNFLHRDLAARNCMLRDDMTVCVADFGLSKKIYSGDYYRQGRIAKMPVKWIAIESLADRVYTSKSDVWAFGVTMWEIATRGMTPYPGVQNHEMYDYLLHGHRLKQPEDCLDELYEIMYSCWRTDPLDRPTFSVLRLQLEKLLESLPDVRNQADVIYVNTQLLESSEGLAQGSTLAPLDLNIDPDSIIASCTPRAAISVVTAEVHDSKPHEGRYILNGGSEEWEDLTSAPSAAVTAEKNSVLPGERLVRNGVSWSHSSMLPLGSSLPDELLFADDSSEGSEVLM
experimentDescription: phosphorylation enrichment, bacterial display (enrichment ratio); higher = better substrate or ligand; peptides without Tyr show the background
measuredMetric: phosphorylation enrichment

FVSSFYHAFSG [ACTN4_Y265_YF]; 8.71

# input Answer with the recorded phosphorylation enrichment of EVVGRYSVHYA [MLH1_Y183_N187Y] only.
# output 0.46

# input Provide one value: measured phosphorylation enrichment of KDYETYQPFQN [CTNND2_Y1157]
# output 0.514

# input Determine its reported phosphorylation enrichment: SVTCTYSPALI [TP53_Y126_N131I]
# output 0.602

# input Report phosphorylation enrichment for KELAPYDENWF [RPS19_Y48]
# output 0.421

# input Let me know recorded phosphorylation enrichment for DYSLKYPTDIP [APC_Y1183_A1184P] , thanks.
# output 0.549

----------
studySystem: Grb2 SH2 (UniProt P62993)
experimentDescription: SH2 binding enrichment of the phosphorylated peptide, bacterial display (enrichment ratio); higher = better substrate or ligand; peptides without Tyr show the background
Attribute: SH2 binding enrichment
Note: the reply should be a number with no unit written.

Use these answered entries as a reference point.
WASGIYFVPKG [APBB1IP_Y340_R335W_YF]; 1.29
YSKDIYKRVTG [PANK2_Y405_N404I]; 0.813
PRPACYPSTVS [CACNA1C_Y1832_G1831C]; 0.865
ADYYDYGHGLS [KHDRBS3_Y304]; 1.04

# input Please list SH2 binding enrichment recorded for the sequence PPKFFYTRKLL [CYBB_Y41]
# output 1.01

# input Assign SH2 binding enrichment to the following record: NRLTDYFEPLL [BBS10_Y536_YF]
# output 1.02

# input Return SH2 binding enrichment for the following sequence: DPHKIFEFVNS [IRF3_Y107_Y107F]
# output 0.662

# input Kindly indicate its recorded SH2 binding enrichment. Item: LFDPDFMKVIL [CYP4A22_Y104_Y104F_YF]
# output 1.06

# input Quote SH2 binding enrichment reported for ADFFDYGHGLS [KHDRBS3_Y304_YF] please.
# output 0.863

# input State its SH2 binding enrichment: PPAPRYHDSAV [LZTR1_Y119_H121D]
# output 0.729

# input Read off the recorded SH2 binding enrichment for VILARYGPAWR [CYP2D6_Y124_F120I]
# output 0.828

# input Identify the reported SH2 binding enrichment for the following entry. TVSRPYSFIEF [SEC22B_Y110]
# output 0.891

# input Specify measured SH2 binding enrichment for LDTFIYDAAVL [GRIN2A_Y730_A727T] .
# output 0.785

----------
studySystem: Fyn (UniProt P06241)
experimentDescription: phosphorylation enrichment, bacterial display (enrichment ratio); higher = better substrate or ligand; peptides without Tyr show the background
phosphorylation enrichment listing for selected sequences.
# respond with the number and nothing more

AESPEHVHMYT [FAM111A_Y511_Y511H]; 0.476
VNFGAYINFFK [GLB1_Y488_D491Y_YF]; 0.441

# input Please report phosphorylation enrichment for the following sequence: TYEPNYGTVKQ [RAPGEF6_Y1447]
# output 2.21

# input Give phosphorylation enrichment for the following sequence: KLFFIYTPGTT [SLC27A4_Y245_S247P_YF]
# output 0.447

# input Identify measured phosphorylation enrichment corresponding to VLTSKYHGGGG [HBA1_Y141_R142H]
# output 0.364

# input Could you please provide reported phosphorylation enrichment for HDHFGYRQSVT [CD55_Y245_R240H_YF] ? Thanks!
# output 0.444

# input Supply reported phosphorylation enrichment belonging to this sequence: IQKKFYRAILE [CHD7_Y1218_YF]
# output 0.344

# input Complete the entry with phosphorylation enrichment for NAPNSYGRRPS [CDKN2A_Y44_I49S]
# output 0.582

# input For the sequence DDLEVYLKHLL [SACS_Y3477] , report phosphorylation enrichment.
# output 0.482

# input Provide one value: measured phosphorylation enrichment of LHVGFYESDVM [A2M_Y708_R704H]
# output 0.691

# input Provide one value: measured phosphorylation enrichment of ISRASYYRKGG [ALK_Y1282_Y1278S]
# output 0.511

# input For the sequence EAVSIYQFYGQ [CBLC_Y402_H405Y] , give its reported phosphorylation enrichment.
# output 9.16

# input For the sequence PQDVTYARLHS [LILRB4_Y412_Q414R] , report phosphorylation enrichment.
# output 1.91

----------
studySystem: FGFR3 (UniProt P22607)
Sequence (P22607 whole entry, looked up): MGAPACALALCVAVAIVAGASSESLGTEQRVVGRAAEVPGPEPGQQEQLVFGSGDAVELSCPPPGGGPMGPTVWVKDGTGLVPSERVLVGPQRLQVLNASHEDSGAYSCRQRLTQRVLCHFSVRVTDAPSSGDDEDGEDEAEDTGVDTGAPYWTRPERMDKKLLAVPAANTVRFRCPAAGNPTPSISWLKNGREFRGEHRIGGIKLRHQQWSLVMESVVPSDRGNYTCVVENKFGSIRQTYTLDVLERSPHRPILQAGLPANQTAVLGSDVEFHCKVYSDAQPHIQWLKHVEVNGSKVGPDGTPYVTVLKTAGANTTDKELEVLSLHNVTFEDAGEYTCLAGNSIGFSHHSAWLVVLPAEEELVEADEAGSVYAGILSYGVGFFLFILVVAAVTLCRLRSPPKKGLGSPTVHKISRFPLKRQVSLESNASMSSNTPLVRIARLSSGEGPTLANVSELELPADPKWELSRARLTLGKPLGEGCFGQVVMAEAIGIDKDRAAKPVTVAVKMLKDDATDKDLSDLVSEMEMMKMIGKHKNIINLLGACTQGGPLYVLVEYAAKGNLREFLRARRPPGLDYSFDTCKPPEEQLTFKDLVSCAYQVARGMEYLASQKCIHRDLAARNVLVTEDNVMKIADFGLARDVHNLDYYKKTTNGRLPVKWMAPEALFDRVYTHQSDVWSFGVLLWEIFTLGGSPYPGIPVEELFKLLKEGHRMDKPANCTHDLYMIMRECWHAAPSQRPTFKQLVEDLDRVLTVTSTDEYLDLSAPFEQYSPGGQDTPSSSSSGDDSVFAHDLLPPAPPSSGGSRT
experimentDescription: phosphorylation enrichment, bacterial display (enrichment ratio); higher = better substrate or ligand; peptides without Tyr show the background
Kindly return label 1 if reported phosphorylation enrichment is no lower than 0.8; return label 0 if it is lower.

DDSSAYCSVDE [BCKDHA_Y345_R346C]; label 0
GYRVCYTPDSR [PTPRF_Y451_Y450C]; label 0
FSKTQYNQVPS [CXADR_Y318_YF]; label 0
LVMFISAIFGM [SCN1A_Y1684_Y1684S]; label 1

# input Entry HLVLNYGVCVC [JAK2_Y613] : is its phosphorylation enrichment no less than 0.8?
# output label 1

# input Determine whether measured phosphorylation enrichment meets or exceeds 0.8 for IQKKFYRAILE [CHD7_Y1218_YF]
# output label 0

----------
studySystem: Grb2 SH2 (UniProt P62993)
experimentDescription: SH2 binding enrichment of the phosphorylated peptide, bacterial display (enrichment ratio); higher = better substrate or ligand; peptides without Tyr show the background
Hi, to clarify the labels: Criterion met covers SH2 binding enrichment from 0.8 upward, Criterion not met covers anything below 0.8.

VLRRVYVDFEG [KMT2B_Y1707]; Criterion met
KELANYYKLHH [AK7_Y390]; Criterion met
FYRNVYHLASV [RBL1_Y796_K794N]; Criterion not met

# input Please indicate if the recorded SH2 binding enrichment for KDHRDYKYQPR [SOX9_Y172_P170R] meets or exceeds 0.8.
# output Criterion met

# input Check if SH2 binding enrichment >= 0.8 (inclusive). Item: DAASNYARGHF [TUBA3E_Y103_YF]
# output Criterion not met

# input hey, is SH2 binding enrichment for this one >= 0.8? IHFAIYFLKYS [ARMC9_Y107_L108F]
# output Criterion met

# input Textbook exercise: given the entry RMETEYGPSVT [MXRA5_Y2717] , state whether its SH2 binding enrichment is greater than or equal to 0.8.
# output Criterion met

# input State whether the measured SH2 binding enrichment reaches 0.8, counting equality as reaching it, for KFDLMYAKHAF [TUBA1A_Y399_R402H]
# output Criterion met

# input Form field: SH2 binding enrichment at least 0.8? Entry: SRNKPYISWPS [CDC42BPB_Y1638]
# output Criterion met

# input Tell me whether SH2 binding enrichment is at least 0.8 here: VVEYGYEFFAK [PPP1CB_Y254_D252Y]
# output Criterion met

# input Hi, just wondering whether RTLIRYANLGN [BEST1_Y131] shows SH2 binding enrichment of 0.8 or higher.
# output Criterion met

# input Would you say PHQTIYGALMI [FGF23_Y70_S71G] shows SH2 binding enrichment at minimum 0.8?
# output Criterion not met

# input Exam item: decide whether the reported SH2 binding enrichment for ARKRKYFKKHE [NFIX_Y40] is at least 0.8.
# output Criterion met
